Where do these numbers come from? They come from patent US20250353873A1.

test system: human APOE RNA; experiment: Dose-dependent inhibition of human APOE RNA in HepG2 cells, electroporation, 50,000 cells per well, RT-PCR normalized to GAPDH (Example 4, Tables 8-10); assay type: cell-based; details: 82 nM; HepG2, electroporation, 16-hour treatment
Strand notation (5' to 3'): a small letter for the sugar, then the base; units joined by * are phosphorothioate-linked, units joined directly phosphodiester-linked; [ ] holds rarer units or linkages, { } end groups; capitals alone tell only the bases. [ms] = mesyl phosphoramidate linkage; e = 2'-O-(2-methoxyethyl) (MOE); k = constrained ethyl (cEt); [5mC] = 5-methylcytosine; d = 2'-deoxy (DNA)
endpoint: APOE RNA (% UTC)
One number for each entry, in % UTC.

Record excerpt, results attached:
[[record]]
substance = "Aes^mCeoTeoTesGesGksTdsGdzAdzAdzTds^mCdsTdsTdsTdsAdzTksTksAesAe (eA*e[5mC]eTeT*eG*kG*dT*dG[ms]dA[ms]dA[ms]dT*d[5mC]*dT*dT*dT*dA[ms]kT*kT*eA*eA) [Compound No. 1757576]"
endpoint = "APOE RNA (% UTC)"
experimentalresult = 84

[[record]]
substance = "1757554: mixed MOE/cEt gapmer TTGGTGAATCTTTATTAA, sugar kkeeeddddddddeeeee, linkages soossssssssssooss (kT*kTeGeG*eT*dG*dA*dA*dT*d[5mC]*dT*dT*dT*eAeTeT*eA*eA) [compound 1757554]"
endpoint = "APOE RNA (% UTC)"
experimentalresult = 106

[[record]]
substance = "1766559 (eT*eTeGeGeT*dG[ms]dA[ms]dA[ms]dT*d[5mC]*dT*dT*dT[ms]dA[ms]dT*kTkAeA*eA*e[5mC]; antisense) [Compound 1766559]"
endpoint = "APOE RNA (% UTC)"
experimentalresult = 47

[[record]]
substance = "Compound No. 1517891: comparator of WO 2022/066956; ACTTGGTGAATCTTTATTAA, sugar eeeeeddddddddddeeeee, linkages sooosssssssssssooss (MOE gapmer, mixed PS/PO linkages, chemistry not fully specified) [reference compound]"
endpoint = "APOE RNA (% UTC)"
experimentalresult = 83

[[record]]
substance = "1757570 (eA*e[5mC]eTeTkG*dG*dT*dG*dA*dA*dT*d[5mC]*dT*dT*dT*kAkTeT*eA*eA; antisense) [Compound 1757570]"
endpoint = "APOE RNA (% UTC)"
experimentalresult = 151


// for each substance in input: emit APOE RNA (% UTC)
1. 1757586 (eT*eTeGeGkT*dG*dA*dA*dT*d[5mC]*dT*dT*dT*dA*dT*kTkAeA*eA*e[5mC]; antisense) [Compound 1757586]
2. 1757557: mixed MOE/cEt gapmer TTGGTGAATCTTTATTAA, sugar eeeeeddddddddeekke, linkages soossssssssssooss (eT*eTeGeG*eT*dG*dA*dA*dT*d[5mC]*dT*dT*dT*eAeTkT*kA*eA) [compound 1757557]

Response given:
[157, 88]
